test system: BDF1 mice, P388 leukemia ip, median survival T/C; test: NCI In Vivo Anticancer Drug Screen. Data for tumor model P388 Leukemia (intraperitoneal) in B6D2F1 (BDF1) mice; conditions: endpoint: median survival time; dose: 200.0 mg/kg/injection; schedule: Q01DX009 (ip); vehicle: saline
Toxic doses and inconclusive results are not listed. Rule for the calls: active = survival T/C of 150% or more; inactive = T/C below 125% in these data.
Tick one outcome: active, inactive

Sample answers from the record:
INSERT INTO assay_data (molecule, group) VALUES
  ('CC1OC(OC2C(O)C(O)C(O)C(O)C2O)C(N)CC1N=C(N)C(=O)O (stereo not given)', 'inactive'),
  ('COC(=O)C(N)CSC (stereo not given)', 'inactive'),
  ('O/N=c1/cc(-c2ccc(Cl)cc2)ss1', 'inactive'),
  ('C=CCOP1(=O)OCC2OC(n3cnc4c(N)ncnc43)C(O)C2O1 (stereo not given)', 'inactive'),
  ('CC1(C)N=C(N)N=C(N)N1c1ccc(OCCOc2ccc(NC(=O)CBr)cc2)cc1', 'inactive'),
  ('O=S(=O)(OC1=CCCCC1)C(F)(F)F', 'inactive');

Query :: What was the test verdict on CC1=[N+](C)C(C)(C)CC(C)O1 (stereo not given) ?
Result :: inactive

Query :: What was the test verdict on O=C(O)CNC(CSCc1ccccc1)CSCc1ccccc1 ?
Result :: inactive

Query :: What was the test verdict on O=C(Nc1ccccc1)c1ccc(C(F)(F)F)cc1O ?
Result :: inactive

Query :: What was the test verdict on COCCOC(C)C(=O)C(O)S(=O)(=O)O (stereo not given) ?
Result :: active

Query :: What was the test verdict on Cc1ccc(-n2nnc3ccccc3c2=O)cc1C ?
Result :: inactive

Query :: What was the test verdict on COc1ccc(/C=C/C2(O)N(C)C(=O)N(C)C(=O)N2C)cc1 ?
Result :: inactive
